TEST METHOD NOTES: AUC (0 to 10) hrs in SCID mouse at 50 mg/kg, po measured upto 10 hrs by LC/MS-MS analysis
Type: ADME, organism-based
Design: dose 50 mg/kg, time < 10 hr, route oral
STUDY CONDITIONS: in vivo
RECORDED METRIC: AUC at 10 h

q: What value of AUC at 10 h has been recorded for this entry: C[C@@H]1CN(c2ncc(Cl)c(Nc3ccc4c(c3)n(CCC(C)(C)O)c(=O)n4C)n2)C[C@H](C)C1(F)F
a: 47.4 to 56.3 µM·h

----------
TEST METHOD NOTES: Kinetic solubility in HEPES buffer containing 5% DMSO at pH 8 incubated for 20 hrs by NMR analysis
Format: physicochemical
STUDY CONDITIONS: read-out: Kinetic_solubility
Recorded solubility kinetic at 20 h determines the group label, using A = under 80 µM, B = from 80 µM up to 300 µM, C = 300 µM and over

Cc1cc(C)n(-c2ncc(Cl)c(Nc3ccc4c(c3)n(CCC(C)(C)O)c(=O)n4C)n2)n1; C
CCC(C#N)Cn1c(=O)n(C)c2ccc(Nc3ccnc(Cl)c3C#N)cc21 (stereo not drawn); A
Cn1c(=O)n(C)c2cc(Nc3cc(SCc4ccccc4)ncn3)ccc21; A
Cn1c(=O)n(CCC(C)(C)O)c2cc(Nc3nc(N4C5CCC4CC(F)(F)C5)ncc3Cl)ccc21; A
C[C@@H]1C[C@H](C)CN(c2cc(Nc3ccc4c(c3)n(CCC(C)(C)O)c(=O)n4C)c(Cl)cn2)C1; A

Attention now turns to another entry.
q: Band of Cn1c(=O)n(CCC(C)(C)O)c2cc(Nc3ncnc(Cl)c3Cl)ccc21 ?
a: C

----------
TEST METHOD NOTES: in vivo
STUDY CONDITIONS: SCID, mouse, po, 15 mg/kg
RECORDED METRIC: Tmax at 24 h

q: Any idea what its Tmax at 24 h is? The compound is C[C@@H]1CN(c2ncc(Cl)c(Nc3ccc4c(c3)n(CCC(C)(C)O)c(=O)n4C)n2)C[C@H](C)C1(F)F
a: 0.5 to 2 h

----------
TEST METHOD NOTES: AUC (0 to 10 hrs) in SCID mouse at 5 mg/kg, po measured upto 10 hrs by LC/MS-MS analysis
Format: ADME, organism-based
Design: time < 10 hr, dose 5 mg/kg, route oral
STUDY CONDITIONS: in vivo
RECORDED METRIC: AUC(0-t) at 10 h

q: # get_value(readout='AUC(0-t) at 10 h', item= C[C@@H]1CN(c2ncc(Cl)c(Nc3ccc4c(c3)n(CCC(C)(C)O)c(=O)n4C)n2)C[C@H](C)C1(F)F )
a: 11.6 to 13.1 µM·h

----------
Read-out record for BCL-6/NCOR2 (Homo sapiens, UniProt P41182): pIC50
Numbers only, as −log10 of the molar value.

Some compounds with known pIC50 results, for comparison:
CC1CCCN(c2ncc(Cl)c(Nc3ccc4c(c3)n(CCC(C)(C)O)c(=O)n4C)n2)C1 (stereo unspecified); 4.89
Cc1ccn(-c2ncc(Cl)c(Nc3ccc4c(c3)n(CCC(C)(C)O)c(=O)n4C)n2)n1; 5.60
C[C@@H]1CN(c2ncc(Cl)c(Nc3ccc4c(c3)n(CCC(C)(C)O)c(=O)n4C)n2)C[C@H](C)O1; 5.75
Cc1cc(C)n(-c2cc(Nc3ccc4c(c3)n(CCC(C)(C)O)c(=O)n4C)c(Cl)cn2)n1; 5.34
C[C@@H]1CN(c2ncc(Cl)c(Nc3ccc4c(c3)n(CCC(C)(C)O)c(=O)n4C)n2)C[C@H](C)N1C; 5.81
Cn1c(=O)n(CCC(C)(C)O)c2cc(Nc3nc(-n4cccn4)ncc3Cl)ccc21; 5.23

For each entry beneath this line, provide reported pIC50.
1. Cn1c(=O)n(CCC(C)(C)O)c2cc(Nc3nc(N4CCOCC4)ncc3Cl)ccc21
2. Cc1ccnn1-c1ncc(Cl)c(Nc2ccc3c(c2)n(CCC(C)(C)O)c(=O)n3C)n1
3. C[C@@H]1CN(c2cc(Nc3ccc4c(c3)n(CCC(C)(C)O)c(=O)n4C)c(Cl)cn2)C[C@H](C)O1
4. Cn1ccnc1-c1ncc(Cl)c(Nc2ccc3c(c2)n(CCC(C)(C)O)c(=O)n3C)n1

a:
[5.64, 5.57, 5.30, 5.34]

q: // query pIC50 value for entry Cc1cc(C)n(-c2ncc(Cl)c(Nc3ccc4c(c3)n(CCC(C)(C)O)c(=O)n4C)n2)n1
a: 5.74

----------
TEST METHOD NOTES: Cmax in SCID mouse at 50 mg/kg, po measured upto 24 hrs by LC/MS-MS analysis
Assay type: ADME, organism-based
Design: dose 50 mg/kg, route oral
STUDY CONDITIONS: in vivo
RECORDED METRIC: Cmax

q: // returns reported Cmax for input C[C@@H]1CN(c2ncc(Cl)c(Nc3ccc4c(c3)n(CCC(C)(C)O)c(=O)n4C)n2)C[C@H](C)C1(F)F
a: 5.32 to 6.21 µM

----------
TEST METHOD NOTES: in vivo
STUDY CONDITIONS: SCID, mouse, po, 50 mg/kg
RECORDED METRIC: Tmax at 24 h

q: For the compound C[C@@H]1CN(c2ncc(Cl)c(Nc3ccc4c(c3)n(CCC(C)(C)O)c(=O)n4C)n2)C[C@H](C)C1(F)F , what Tmax at 24 h is on record?
a: 2 to 6 h

----------
TEST METHOD NOTES: Protein binding in SCID mouse plasma assessed as unbound fraction
Format: ADME, cell-free
RECORDED METRIC: fraction unbound
Give bare numbers.

q: Need fraction unbound, item C[C@@H]1CN(c2ncc(Cl)c(Nc3ccc4c(c3)n(CCC(C)(C)O)c(=O)n4C)n2)C[C@H](C)C1(F)F
a: 0.0007

----------
Notes on DC50 obtained with B-cell lymphoma 6 protein (Homo sapiens, UniProt P41182).

Here are 5 molecules together with their reported answers.
CC1CCCN(c2ncc(Cl)c(Nc3ccc4c(c3)n(CCC(C)(C)O)c(=O)n4C)n2)C1 (stereo not drawn); 0.52 µM
Cn1c(=O)n(CCC(C)(C)O)c2cc(Nc3nc(N4CC5CCC(C4)C5(F)F)ncc3Cl)ccc21; > 10 µM
Cn1ccnc1-c1ncc(Cl)c(Nc2ccc3c(c2)n(CCC(C)(C)O)c(=O)n3C)n1; > 10 µM
CC1CN(c2ncc(Cl)c(Nc3ccc4c(c3)n(CCC(C)(C)O)c(=O)n4C)n2)CCC1(F)F (stereo not drawn); 0.18 µM
Cn1c(=O)n(CCC(C)(C)O)c2cc(Nc3nc(N4CCC(C(F)(F)F)CC4)ncc3Cl)ccc21; > 10 µM

For each of the molecules below, state DC50.
1. Cn1c(=O)n(CCC(C)(C)O)c2cc(Nc3nc(N4CCCC(CO)C4)ncc3Cl)ccc21 (stereo not drawn)
2. Cn1c(=O)n(CCC(C)(C)O)c2cc(Nc3nc(N4CCCC(C#N)C4)ncc3Cl)ccc21 (stereo not drawn)
3. Cc1ccnn1-c1ncc(Cl)c(Nc2ccc3c(c2)n(CCC(C)(C)O)c(=O)n3C)n1
4. Cc1nc(C)c(-c2ncc(Cl)c(Nc3ccc4c(c3)n(CCC(C)(C)O)c(=O)n4C)n2)s1
5. C[C@@H]1CN(c2ncc(Cl)c(Nc3ccc4c(c3)n(CCC(C)(C)O)c(=O)n4C)n2)C[C@H](C)N1C

a:
0.45 µM
> 10 µM
> 10 µM
> 10 µM
> 10 µM

----------
Tested on: OCI-Ly1
TEST METHOD NOTES: Antiproliferative activity agianst human OCI-LY1 cells assessed as growth inhibition incubated for 14 days by CellTiter Glo reagent based assay
RECORDED METRIC: GI50 (µM)
Numbers only, in µM.

C[C@@H]1C[C@H](C)CN(c2ncc(Cl)c(Nc3ccc4c(c3)n(CCC(C)(C)O)c(=O)n4C)n2)C1; 0.28
C[C@@H]1CN(c2ncc(Cl)c(Nc3ccc4c(c3)n(CCC(C)(C)O)c(=O)n4C)n2)C[C@H](C)C1(F)F; 0.035
Cn1c(=O)n(CCC(C)(C)O)c2cc(Nc3nc(N4CCC(F)(F)C(CO)C4)ncc3Cl)ccc21 (centres undefined); 0.5

Alright, here's another compound for you.
q: Can you share its GI50? I mean this compound: Cn1c(=O)n(CCC(C)(C)O)c2cc(Nc3nc(N4CCC(F)(F)CC4)ncc3Cl)ccc21
a: 0.5

----------
TEST METHOD NOTES: Metabolic stability in CD-1 mouse liver microsomes assessed as intrinsic clearance at 1 uM measured upt0 30 mins by LC-MS/MS analysis
Format: ADME, Microsome
STUDY CONDITIONS: 0.5 h
Exercise: state measured CLH for each of the compounds provided.

C[C@@H]1CN(c2ncc(Cl)c(Nc3ccc4c(c3)n(CCC(C)(C)O)c(=O)n4C)n2)C[C@H](C)C1(F)F; 78 µL/min/mg

List reported CLH for each of these compounds:
1. Cn1c(=O)n(CCC(C)(C)O)c2cc(Nc3nc(N4CCCC(CO)C4)ncc3Cl)ccc21 (centres undefined)
2. COCC1CN(c2ncc(Cl)c(Nc3ccc4c(c3)n(CCC(C)(C)O)c(=O)n4C)n2)CCC1(F)F (centres undefined)

a:
1. 370 µL/min/mg
2. > 1000 µL/min/mg
